Entry source: the kinase profiling compilation of Christmann-Franck et al. (2016)

- target under test: LIMK1 (human) (UniProt P53667)
- Sequence (P53667 whole entry, looked up): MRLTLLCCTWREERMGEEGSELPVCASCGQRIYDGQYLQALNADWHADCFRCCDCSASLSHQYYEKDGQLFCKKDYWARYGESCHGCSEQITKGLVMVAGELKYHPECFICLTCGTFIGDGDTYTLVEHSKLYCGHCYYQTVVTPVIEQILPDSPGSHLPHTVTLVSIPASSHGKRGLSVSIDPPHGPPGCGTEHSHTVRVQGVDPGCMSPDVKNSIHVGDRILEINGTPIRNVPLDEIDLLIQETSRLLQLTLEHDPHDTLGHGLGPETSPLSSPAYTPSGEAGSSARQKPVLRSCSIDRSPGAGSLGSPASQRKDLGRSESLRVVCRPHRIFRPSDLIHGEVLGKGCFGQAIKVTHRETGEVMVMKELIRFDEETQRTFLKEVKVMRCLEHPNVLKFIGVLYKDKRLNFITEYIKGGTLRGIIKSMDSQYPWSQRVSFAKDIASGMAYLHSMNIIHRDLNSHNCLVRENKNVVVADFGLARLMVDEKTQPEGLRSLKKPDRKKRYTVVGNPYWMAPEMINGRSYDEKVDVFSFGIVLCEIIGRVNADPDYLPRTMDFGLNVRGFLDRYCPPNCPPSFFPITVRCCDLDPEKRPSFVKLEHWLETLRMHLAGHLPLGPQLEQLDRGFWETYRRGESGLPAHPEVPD
- procedure summary: KINOMEscan competition binding
- run parameters: compound 10.0 µM

molecule | kinase still bound, per cent of control
COc1ccc(-c2ccc3c(N4CCOCC4)nc(N4C[C@@H](C)O[C@@H](C)C4)nc3n2)cc1CO | 100%
CCC(=O)N1CCN(c2ccc(-n3c(=O)ccc4cnc5ccc(-c6cnc7ccccc7c6)cc5c43)cc2C(F)(F)F)CC1 | 15%
CC(C)n1nc(-c2cc3cc(O)ccc3[nH]2)c2c(N)ncnc21 | 73%
COC(=O)Nc1ccc(-c2nc(N3CCOCC3)c3cnn(C4CCN(C(=O)OC)CC4)c3n2)cc1 | 100%
